Assay name: Solubility in PBS
Assay type: physicochemical
Description: After ultracentrifugation of the PBS solution, the supernatant was analyzed by HPLC and compared to an HPLC injection 50 μM peptide DMSO solution. Solubility was determined by: [(Area of PBS peak)/(Area of DMSO peak)]*50 uM.
Measured attribute: Solubility (µM)

- CC[C@H](C)[C@@H]1NC(=O)[C@H](CC(=O)O)NC(=O)[C@]2(CC=CCCCC3(CCCC=CCCCCCC[C@@](C)(C(=O)N[C@@H](Cc4ccccc4)C(=O)N[C@@H](Cc4csc5ccccc45)C(=O)N[C@H](C(N)=O)[C@@H](C)O)NC(=O)[C@H](CCC(N)=O)NC(=O)[C@H](Cc4ccccc4)NC(=O)[C@H](C)NC(=O)[C@H](C)NC(=O)[C@H](CCC(=O)O)NC(=O)[C@H](CC(=O)O)NC3=O)NC1=O)CCCN2C(C)=O (stereo partly drawn) [I-641]: 43
- CC[C@H](C)[C@@H]1NC(=O)[C@H](CC(=O)O)NC(=O)[C@]2(CC=CCCCC3(CCCC=CCCCCCC[C@@](C)(C(=O)N[C@@H](Cc4ccccc4)C(=O)N[C@@H](Cc4csc5ccccc45)C(=O)N[C@@H](CCC(N)=O)C(N)=O)NC(=O)[C@H](CCC(N)=O)NC(=O)[C@H](Cc4ccccc4)NC(=O)[C@H](C)NC(=O)[C@H](CC(C)C)NC(=O)[C@H](CCC(=O)O)NC(=O)[C@H](CC(=O)O)NC3=O)NC1=O)CCCN2C(C)=O (stereo partly drawn) [I-647]: 50
- CC(=O)N1CCC[C@]12CC=CCCCC1(CCCC=CCCCOC(=O)N3CC[C@@](C(=O)N[C@@H](Cc4ccccc4Cl)C(=O)N[C@@H](Cc4csc5ccccc45)C(=O)N[C@@H](CC(C)C)C(N)=O)(C3)NC(=O)[C@H]([C@@H](C)O)NC(=O)[C@H](Cc3ccccc3)NC(=O)[C@H](C)NC(=O)[C@H](CCCCNC(C)C)NC(=O)[C@H](CC(=O)O)NC(=O)[C@H](CC(=O)O)NC1=O)NC(=O)[C@H](CC(C)(C)C)NC(=O)[C@H](CC(=O)O)NC2=O (stereo partly drawn): 10

---

Assay name: Solubility in PBS
Format: physicochemical
Settings: Solubility (uM)
// 0 (no) strictly below 40 µM in Solubility; 1 (yes) otherwise

* CC[C@@H](C)[C@@H](NC(=O)[C@H](Cc1c[nH]cn1)NC(=O)[C@H](Cc1csc2ccccc12)NC(=O)[C@H](Cc1ccccc1)NC(=O)[C@]1(C)CCCCCCC=CCCCC2(CCCC=CC[C@]3(CCCN3C(C)=O)C(=O)N[C@@H](CC(=O)O)C(=O)N[C@@H](CC(C)C)C(=O)N2)C(=O)N[C@@H](CC(=O)O)C(=O)N[C@@H](CCC(=O)O)C(=O)N[C@@H](C)C(=O)N[C@@H](C)C(=O)N[C@@H](Cc2ccccc2)C(=O)N[C@@H](CC(N)=O)C(=O)N1)C(N)=O (stereo partly drawn) | 0 (no)
* CC(=O)N1CCC[C@]12CC=CCCCC1(CCCC=CCCCOC(=O)N3CC[C@@](C(=O)N[C@@H](Cc4ccsc4)C(=O)N[C@@H](Cc4csc5ccccc45)C(=O)N[C@@H](CCC(N)=O)C(N)=O)(C3)NC(=O)[C@H](CC(N)=O)NC(=O)[C@H](Cc3ccccc3)NC(=O)[C@H](CCCCNC(=O)CCc3cccc4ccccc34)NC(=O)[C@H](C)NC(=O)[C@H](CC(=O)O)NC(=O)[C@H](CC(=O)O)NC1=O)NC(=O)[C@H](CC(C)(C)C)NC(=O)[C@H](CC(=O)O)NC2=O (stereo partly drawn) | 0 (no)
* CC(=O)N1CCC[C@]12CC=CCCCC1(CCCC=CCCCOC(=O)N3CC[C@@](C(=O)N[C@@H](Cc4ccsc4)C(=O)N[C@@H](Cc4csc5ccccc45)C(=O)N[C@@H](CCC(N)=O)C(N)=O)(C3)NC(=O)[C@H](CC(C)C)NC(=O)[C@H](Cc3ccccc3C#N)NC(=O)[C@H](C)NC(=O)[C@H](C)NC(=O)[C@H](CC(=O)O)NC(=O)[C@H](CC(=O)O)NC1=O)NC(=O)[C@H](CC(C)(C)C)NC(=O)[C@H](CC(=O)O)NC2=O (stereo partly drawn) | 1 (yes)
* CC(=O)N1CCC[C@]12CC=CCCCC1(CCCC=CCCCOC(=O)N3CC[C@@](C(=O)N[C@@H](Cc4cccs4)C(=O)N[C@@H](Cc4csc5ccccc45)C(=O)N[C@@H](CCC(N)=O)C(N)=O)(C3)NC(=O)[C@H](CC(N)=O)NC(=O)[C@H](Cc3ccccc3)NC(=O)[C@H](C)NC(=O)[C@H](C)NC(=O)[C@H](CC(=O)O)NC(=O)[C@H](CC(=O)O)NC1=O)NC(=O)[C@H](CC(C)(C)C)NC(=O)[C@H](CC(=O)O)NC2=O (stereo partly drawn) | 1 (yes)
* CC(=O)N1CCC[C@]12CC=CCCCC1(CCCC=CCCCCCC[C@@](C)(C(=O)N[C@@H](Cc3ccccc3Cl)C(=O)N[C@@H](Cc3csc4ccccc34)C(=O)N[C@@H](CCC(N)=O)C(N)=O)NC(=O)[C@H](CO)NC(=O)[C@H](Cc3ccccc3)NC(=O)[C@H](C)NC(=O)[C@H](C)NC(=O)[C@H](CN(CC(=O)O)CC(F)(F)F)NC(=O)[C@H](CC(=O)O)NC1=O)NC(=O)[C@H](CC(C)(C)C)NC(=O)[C@H](CC(=O)O)NC2=O (stereo partly drawn) | 0 (no)
* CC(=O)N1CCC[C@]12CC=CCCCC1(CCCC=CCCCOC(=O)N3CC[C@@](C(=O)N[C@@H](Cc4ccsc4)C(=O)N[C@@H](Cc4csc5ccccc45)C(=O)N[C@@H](Cc4c[nH]cn4)C(N)=O)(C3)NC(=O)[C@H](CC(N)=O)NC(=O)[C@H](Cc3ccccc3)NC(=O)[C@H](C)NC(=O)[C@H](CCCCNC(=O)Cn3cc(CNC(=O)c4ccc5c(c4)C4(OC5=O)c5ccc(O)cc5Oc5cc(O)ccc54)nn3)NC(=O)[C@H](CC(=O)O)NC(=O)[C@H](CC(=O)O)NC1=O)NC(=O)[C@H](CC(C)(C)C)NC(=O)[C@H](CC(=O)O)NC2=O (stereo partly drawn) | 0 (no)
* CC(=O)N1CCC[C@]12CC=CCCCC1(CCCC=CCCCOC(=O)N3CC[C@@](C(=O)N[C@@H](Cc4ccccc4Cl)C(=O)N[C@@H](Cc4csc5ccccc45)C(=O)N[C@@H](CO)C(N)=O)(C3)NC(=O)[C@H]([C@@H](C)O)NC(=O)[C@H](Cc3ccccc3)NC(=O)[C@H](C)NC(=O)[C@H](CC(C)C)NC(=O)[C@H](CC(=O)O)NC(=O)[C@H](CC(=O)O)NC1=O)NC(=O)[C@H](Cc1ccccc1)NC(=O)[C@H](CC(=O)O)NC2=O (stereo partly drawn) | 1 (yes)
* CC(=O)N1CCC[C@]12CC=CCCCC1(CCCC=CCCCOC(=O)N3CC[C@@](C(=O)N[C@@H](Cc4cccs4)C(=O)N[C@@H](Cc4csc5ccccc45)C(=O)N[C@@H](Cc4c[nH]cn4)C(N)=O)(C3)NC(=O)[C@H](CC(N)=O)NC(=O)[C@H](Cc3ccccc3)NC(=O)[C@H](C)NC(=O)[C@H](C)NC(=O)[C@H](CC(=O)O)NC(=O)[C@H](CC(=O)O)NC1=O)NC(=O)[C@H](CC(C)(C)C)NC(=O)[C@H](CC(=O)O)NC2=O (stereo partly drawn) | 1 (yes)

---

Assay name: CHI Log D procedure
Assay type: physicochemical
Settings: pH 7.4, CHI Log D
Measured attribute: chromatographic logD

* CC(=O)N1CCC[C@]12CC=CCCCC1(CCCC=CCCCCCC[C@@](C)(C(=O)N[C@@H](Cc3cccc(F)c3)C(=O)N[C@@H](Cc3csc4ccccc34)C(=O)N[C@@H](CCC(N)=O)C(N)=O)NC(=O)[C@H](C)NC(=O)[C@H](Cc3ccccc3)NC(=O)[C@H](C)NC(=O)[C@H](C)NC(=O)[C@H](CC(=O)O)NC(=O)[C@H](CC(=O)O)NC1=O)NC(=O)[C@H](C)NC(=O)[C@H](CC(=O)O)NC2=O (stereo partly drawn) | 2.14
* CC(=O)N1CCC[C@]12CC=CCCCC1(CCCC=CCCCOC(=O)N3CC[C@@](C(=O)N[C@@H](Cc4ccsc4)C(=O)N[C@@H](Cc4csc5ccccc45)C(N)=O)(C3)NC(=O)[C@H](CC(N)=O)NC(=O)[C@H](Cc3ccccc3)NC(=O)[C@H](C)NC(=O)[C@H](C)NC(=O)[C@H](CCCNC(N)=O)NC(=O)[C@H](CC(=O)O)NC1=O)NC(=O)[C@H](CC(C)(C)C)NC(=O)[C@H](CC(=O)O)NC2=O (stereo partly drawn) | 2.55
* CC[C@H](C)[C@@H]1NC(=O)[C@H](CC(=O)O)NC(=O)[C@]2(CC=CCCCC3(CCCC=CCCCCCC[C@@](C)(C(=O)N[C@@H](Cc4cccc(F)c4)C(=O)N[C@@H](Cc4csc5ccccc45)C(=O)N[C@@H](CCC(N)=O)C(N)=O)NC(=O)[C@H](CCC(N)=O)NC(=O)[C@H](Cc4cccs4)NC(=O)[C@H](C)NC(=O)[C@H](C)NC(=O)[C@H](CCC(=O)O)NC(=O)[C@H](CC(=O)O)NC3=O)NC1=O)CCCN2C(C)=O (stereo partly drawn) | 2.65
